Data provenance: patent US20180214548A1

molecular target: T1, human PD-1^ECD-hFc protein (Immunogen A) (human, UniProt Q15116 25-167); assay: ELISA, coated human PD-1ECD-hFc; antibody 100 nM
T1 construct: Biotinylated for the Octet assay; also called PD-1-hFc; hPD-1^ECD-hFc; not shown: human IgG Fc fragment (hFc)
T1 sequence (Q15116 25-167): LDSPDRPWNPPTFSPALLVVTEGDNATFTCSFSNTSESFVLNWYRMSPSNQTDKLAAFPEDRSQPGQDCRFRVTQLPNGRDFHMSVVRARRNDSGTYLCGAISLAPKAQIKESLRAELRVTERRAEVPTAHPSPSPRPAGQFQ
PROPERTY: OD450 nm

{"columns": ["BINDER", "PROPERTY", "OBSERVED RESULT"],
 "data": [
  ["chimeric anti-PD-1 antibody 21G8F11 (antibody, V domains shown, Purified from hybridoma of Harbour H2L2 mice: human variable regions, rat constant regions) VH: EVQLLESGGGLAQPGGSLRLSCAASGFSFNTYLMHWVRQAPGKGLEWVSAISGGGGNTYYADSVKGRFTISRDNSKNTLYLQMNSLRAEDTAVYYCAKENRIPVAPFDYWGQGTLVTVSS VL: DIQMTQSPSTLSASVGDRVTITCRASQSISTWLAWYQQKPGKAPKLLIYKASSLESGVPSRFSGSGSGTEFTLTISSLQPDDLATYYCQQYNSFSWTFGQGTKVEIK", "OD450 nm", 2.73],
  ["chimeric anti-PD-1 antibody 226C3A7 (antibody, V domains shown, Purified from hybridoma of Harbour H2L2 mice: human variable regions, rat constant regions) VH: QVQLQQSGPGLVNPSQTLSLTCAISGDSVSSNSGAWNWIRQSPSRGLEWLGRTYYRSKWYNDYGISVQSRITINPDTSKNHFSLQLNSVTPEDTAVYYCARDPYYYGSGSYFDYWGQGTLVTVSS VL: EIVMTQSPATLSVSPGERVTLSCRASLSVNSNLAWYQQKPGQAPRLLIYDTSTRATGVPARFSGSGSGTEFTLTISSLQSEDFAVYYCQQYHYWPLTFGGGTKVEIK", "OD450 nm", 2.83],
  ["chimeric anti-PD-1 antibody 32B5C7 (antibody, V domains shown, Purified from hybridoma of Harbour H2L2 mice: human variable regions, rat constant regions) VH: EVQLLESGGGLVQPGGSLRLSCAASGFTFSSYAMSWVRQAPGKGLEWVSTISGSGGTTYYADSVKGRFTISRDNSKNTLYLQMNSLRAEDTAVYYCTLTGDPDYWGQGTLVTVSS VL: EIVLTQSPATLSLSPGERATLSCRASQSVSSYLAWYQQKPGQAPRLLIYDASKRATGIPARFSGSGSGTDFTLTISSLEPEDFAVYYCQQRNNWPLTFGGGTKVEIK", "OD450 nm", 3.05],
  ["chimeric anti-PD-1 antibody 76G5B3 (antibody, V domains shown, Purified from hybridoma of Harbour H2L2 mice: human variable regions, rat constant regions) VH: QVQLVESGGGVVQPGRSLRLSCAASGFTFSDYGFHWVRQAPGKGLEWVAVIWYDGSNEYYTDSVKGRFTISRDNSKNTLYLQMNSLRAEDTAMYFCVVNPFDYWGQGTLVTVSS VL: DIQMTQSPSSLSAFVGDRVTITCRASQGINHYLAWYQQKPGKAPNLLILAASTLLSGVPSRFGGRGSGTDFTLIISSLQPEDVATYYCQKYDSAPYTFGQGTKLEIK", "OD450 nm", 3.05]
]}
